Experiment: Pharmacokinetic study, plasma and brain PK parameters after I.P. dosing
Format: in vivo, mouse
Settings: mouse, ip; brain; 25 mg/Kg I.P.; read-out: MRTInf_obs (Brain)

molecule	MRT inf
O=C(CO)N1CCc2c(sc3c(Cl)c(Cl)cc(-c4cn[nH]c4)c23)C1 [Compound 63]	6.51 h
Cn1cc(-c2cc(Cl)c(Cl)c3sc4c(c23)CN(C(=O)CO)CC4)cn1 [Compound 48]	4.69 h

----------
Biological target: UniProtKB Q12809
Sequence (Q12809 whole entry): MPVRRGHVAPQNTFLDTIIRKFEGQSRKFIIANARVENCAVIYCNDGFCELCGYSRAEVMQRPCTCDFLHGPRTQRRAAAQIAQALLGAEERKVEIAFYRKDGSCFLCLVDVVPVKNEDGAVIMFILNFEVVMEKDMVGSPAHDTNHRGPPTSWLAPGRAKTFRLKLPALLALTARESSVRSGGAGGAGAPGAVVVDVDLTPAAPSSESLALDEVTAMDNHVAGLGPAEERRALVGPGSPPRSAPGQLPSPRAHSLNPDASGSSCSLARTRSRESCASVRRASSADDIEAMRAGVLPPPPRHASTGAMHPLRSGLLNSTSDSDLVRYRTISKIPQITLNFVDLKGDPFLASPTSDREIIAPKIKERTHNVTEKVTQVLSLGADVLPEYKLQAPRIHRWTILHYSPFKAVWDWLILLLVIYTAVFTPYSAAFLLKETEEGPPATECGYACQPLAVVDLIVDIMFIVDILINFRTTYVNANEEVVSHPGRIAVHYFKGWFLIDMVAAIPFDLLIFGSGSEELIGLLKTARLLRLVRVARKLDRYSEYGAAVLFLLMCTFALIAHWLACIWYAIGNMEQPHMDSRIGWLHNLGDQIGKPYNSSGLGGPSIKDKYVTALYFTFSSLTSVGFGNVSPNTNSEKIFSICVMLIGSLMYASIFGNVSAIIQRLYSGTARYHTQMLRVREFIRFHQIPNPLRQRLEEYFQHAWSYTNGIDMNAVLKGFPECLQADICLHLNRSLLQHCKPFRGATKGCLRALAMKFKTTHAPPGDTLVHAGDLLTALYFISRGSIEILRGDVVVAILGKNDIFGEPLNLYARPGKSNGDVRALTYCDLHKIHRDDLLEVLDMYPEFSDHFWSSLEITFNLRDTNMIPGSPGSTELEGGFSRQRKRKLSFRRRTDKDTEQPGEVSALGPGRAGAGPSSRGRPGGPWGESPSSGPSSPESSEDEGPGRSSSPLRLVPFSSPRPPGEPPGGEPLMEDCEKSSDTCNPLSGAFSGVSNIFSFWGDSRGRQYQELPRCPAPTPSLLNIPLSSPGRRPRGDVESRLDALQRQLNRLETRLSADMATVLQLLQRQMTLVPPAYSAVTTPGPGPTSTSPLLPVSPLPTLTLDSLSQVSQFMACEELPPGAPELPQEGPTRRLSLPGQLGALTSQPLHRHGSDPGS
Assay: Safety panel screening, hERG automated patch clamp
Assay type: cell-based
Details: read-out: Mean percentage inhibition (%) at 10 μM, hERG
This listing pairs compounds with measured inhibition at 10 µM.

smilesRepresentation	subjectOfTest	inhibition at 10 µM (%)
Cn1cc(-c2cc(Cl)c(Cl)c3sc4c(c23)CN(C(=O)CO)CC4)cn1	UniProtKB Q12809	63
O=C(CO)N1CCc2c(sc3c(Cl)c(Cl)cc(-c4cn[nH]c4)c23)C1	UniProtKB Q12809	49.7
